Reference source: patent US11332459B2

ASSAYED_TARGET: human TRPC6 (Homo sapiens, UniProt Q9Y210)
Sequence (Q9Y210 whole entry): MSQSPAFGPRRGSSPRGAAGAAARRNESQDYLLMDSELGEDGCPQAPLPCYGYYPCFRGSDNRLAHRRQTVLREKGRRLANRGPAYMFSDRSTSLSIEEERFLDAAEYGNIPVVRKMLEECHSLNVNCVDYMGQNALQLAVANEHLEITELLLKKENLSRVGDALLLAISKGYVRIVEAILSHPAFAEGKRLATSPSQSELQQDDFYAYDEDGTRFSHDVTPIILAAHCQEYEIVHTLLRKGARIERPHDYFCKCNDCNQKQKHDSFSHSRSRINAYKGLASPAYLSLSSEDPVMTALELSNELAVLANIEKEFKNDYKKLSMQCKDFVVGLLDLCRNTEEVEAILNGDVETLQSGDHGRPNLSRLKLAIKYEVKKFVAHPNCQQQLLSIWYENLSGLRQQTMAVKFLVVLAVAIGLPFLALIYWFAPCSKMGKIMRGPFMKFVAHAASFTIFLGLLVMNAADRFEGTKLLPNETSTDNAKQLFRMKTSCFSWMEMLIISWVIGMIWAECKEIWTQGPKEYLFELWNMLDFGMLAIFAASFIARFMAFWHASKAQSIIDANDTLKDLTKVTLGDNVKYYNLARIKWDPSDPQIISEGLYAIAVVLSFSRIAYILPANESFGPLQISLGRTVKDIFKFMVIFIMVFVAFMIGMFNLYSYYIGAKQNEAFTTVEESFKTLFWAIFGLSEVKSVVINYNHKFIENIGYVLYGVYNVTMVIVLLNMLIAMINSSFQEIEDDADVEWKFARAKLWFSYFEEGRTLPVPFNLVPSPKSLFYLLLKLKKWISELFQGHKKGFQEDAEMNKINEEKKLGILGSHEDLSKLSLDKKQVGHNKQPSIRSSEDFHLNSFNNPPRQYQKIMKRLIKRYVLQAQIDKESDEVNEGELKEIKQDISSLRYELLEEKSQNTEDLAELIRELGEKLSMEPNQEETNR
ASSAY_OVERVIEW: TRPC6 calcium flux assay (FLIPR, OAG-stimulated calcium influx)
CONDITION_DETAILS: HEK293 cells stably transfected with human TRPC6, read-out: hTRPC6 Potency
# note: boundary value 200 nM maps to class 0; IC50 below it maps to class 1

N#Cc1ccc2c(c1)CC[C@@H]2n1c(N2CCC[C@H](N)C2)nc2ccccc21	class 1
Cc1nc(Cn2c(N3CC[C@@H](F)[C@H](N)C3)nc3cc(F)c(F)cc32)oc1C	class 1
CN(C)C(=O)C1CCCN(C(=O)Cn2c(N3CC[C@@H](F)[C@H](N)C3)nc3cc(F)c(F)cc32)C1 (stereo partly shown)	class 0
CN1CC[C@H](n2c(N3CC[C@@H](F)[C@H](N)C3)nc3cc(F)c(F)cc32)C1=O	class 1
N[C@@H]1CN(c2nc3cc(F)c(F)cc3n2[C@@H]2CCN(c3ccc(Cl)cc3)C2=O)CC[C@H]1F	class 1
N#Cc1ccc2c(c1)nc(N1CC[C@H](F)[C@H](N)C1)n2Cc1ncc(Cl)cn1	class 1
C[C@H]1CCCN1C(=O)Cn1c(N2CC[C@@H](F)[C@H](N)C2)nc2ccc(F)cc21	class 0
N#Cc1ccc(Cn2c(N3CC[C@@H](F)[C@H](N)C3)nc3c(F)cc(F)cc32)nc1	class 1
N[C@@H]1CN(c2nc3ccc(F)cc3n2Cc2ncc(Cl)cn2)CC[C@H]1O (single isomer, unassigned) [Example 496]	class 1
CO[C@@H]1CCN(c2nc3cc(F)ccc3n2CC(=O)N(C)CC(F)(F)F)C[C@H]1N	class 0

Is it true that IC50 reported for "N#Cc1ccc(Cn2c(N3CCC(F)(F)[C@H](N)C3)nc3ccc(F)cc32)nc1" is less than 200 nM?
class 1

Is it true that IC50 reported for CN(CC(F)F)C(=O)Cn1c(N2CC[C@@H](F)[C@H](N)C2)nc2cc(F)c(F)cc21 (single isomer, unassigned) [Example 634] is less than 200 nM?
class 0

Is it true that IC50 reported for "N[C@@H]1CN(c2nc3ccc(F)cc3n2CC(=O)Nc2nccs2)CC[C@H]1F" is less than 200 nM?
class 1

Is it true that IC50 reported for "N[C@@H]1CN(c2nc3ccccc3n2Cc2ncc(C(F)(F)F)cn2)CC[C@H]1F" is less than 200 nM?
class 1

Is it true that IC50 reported for CN(CC(F)(F)F)C(=O)Cn1c(N2CCC(F)(CN)C2)nc2ccc(F)cc21 (stereo not shown) is less than 200 nM?
class 0

Is it true that IC50 reported for "N[C@@H]1CN(c2nc3ccc(F)cc3n2CC(=O)N2CCOC[C@H]2CO)CC[C@H]1F" is less than 200 nM?
class 0
